// reported pIC50 for each item listed
# Tested on: HepG-2 cells
# assay_method_text: MTT assay, cytotoxic effects on HepG-2 cells
# Format: cell-based, human
# study_conditions: Homo sapiens, HepG2, HepG-2 cell line, 48 h, read-out: IC50 HepG-2
pIC50: −log10 of the molar value.
assay_endpoint: pIC50

{"molecule": "COc1cc(C2CC(c3ccccc3O)=NN2C(=O)c2ccccc2[N+](=O)[O-])cc(OC)c1O (stereo not drawn) [b10]", "assay_endpoint": "pIC50", "result_modifier": "<", "meas_value": 4.30}
{"molecule": "COc1cc(C2CC(c3ccccc3O)=NN2S(=O)(=O)c2cccc([N+](=O)[O-])c2)cc(OC)c1O (stereo not drawn) [b7]", "assay_endpoint": "pIC50", "result_modifier": "<", "meas_value": 4.30}
{"molecule": "COc1cc(C2CC(c3ccccc3O)=NN2S(=O)(=O)c2ccc([N+](=O)[O-])cc2)cc(OC)c1O (stereo not drawn) [b8]", "assay_endpoint": "pIC50", "result_modifier": "<", "meas_value": 4.30}
{"molecule": "COc1cc(C2CC(c3ccccc3O)=NN2)cc(OC)c1O (stereo not drawn) [b1]", "assay_endpoint": "pIC50", "result_modifier": "<", "meas_value": 4.30}
{"molecule": "COc1cc(C2CC(c3ccccc3O)=NN2S(=O)(=O)c2ccccc2)cc(OC)c1O (stereo not drawn) [b5]", "assay_endpoint": "pIC50", "result_modifier": "=", "meas_value": 4.54}
{"molecule": "COc1cc(C2CC(c3ccccc3O)=NN2S(=O)(=O)c2ccccc2[N+](=O)[O-])cc(OC)c1O (stereo not drawn) [b6]", "assay_endpoint": "pIC50", "result_modifier": "<", "meas_value": 4.30}
{"molecule": "COc1cc(C2CC(c3ccccc3O)=NN2C(=O)c2cc3ccccc3s2)cc(OC)c1O (stereo not drawn) [b17]", "assay_endpoint": "pIC50", "result_modifier": "=", "meas_value": 5.45}
{"molecule": "COc1cc(C2CC(c3ccccc3O)=NN2C(=O)c2ccc3ccccc3c2)cc(OC)c1O (stereo not drawn) [b14]", "assay_endpoint": "pIC50", "result_modifier": "=", "meas_value": 4.74}
{"molecule": "COc1cc(C2CC(c3ccccc3O)=NN2C(=O)c2ccco2)cc(OC)c1O (stereo not drawn) [b16]", "assay_endpoint": "pIC50", "result_modifier": "=", "meas_value": 5.34}

----------
// reported melting point for each item listed

{"molecule": "COc1cc(C2CC(c3ccccc3O)=NN2S(=O)(=O)c2ccc(C)cc2)cc(OC)c1O (stereo not shown)", "melting point": "194.6 to 194.7 °C"}
{"molecule": "COc1cc(C2CC(c3ccccc3O)=NN2S(=O)(=O)c2cccc([N+](=O)[O-])c2)cc(OC)c1O (stereo not shown)", "melting point": "131.9 to 133.5 °C"}
{"molecule": "COc1cc(C2CC(c3ccccc3O)=NN2c2ccccc2)cc(OC)c1O (stereo not shown)", "melting point": "169.7 to 170.8 °C"}
{"molecule": "COc1cc(C2CC(c3ccccc3O)=NN2)cc(OC)c1O (stereo not shown)", "melting point": "140.3 to 140.7 °C"}
{"molecule": "COc1cc(C2CC(c3ccccc3O)=NN2C(=O)c2ccco2)cc(OC)c1O (stereo not shown)", "melting point": "201.1 to 203.7 °C"}
{"molecule": "COc1cc(C2CC(c3ccccc3O)=NN2S(=O)(=O)c2ccccc2[N+](=O)[O-])cc(OC)c1O (stereo not shown)", "melting point": "151.1 to 152.8 °C"}
{"molecule": "COc1cc(C2CC(c3ccccc3O)=NN2C(=O)c2ccc3ccccc3c2)cc(OC)c1O (stereo not shown)", "melting point": "185.5 to 186.5 °C"}
{"molecule": "COc1cc(C2CC(c3ccccc3O)=NN2C(=O)c2cc3ccccc3s2)cc(OC)c1O (stereo not shown)", "melting point": "169.2 to 170.1 °C"}
{"molecule": "COc1cc(C2CC(c3ccccc3O)=NN2C(=O)c2ccccc2[N+](=O)[O-])cc(OC)c1O (stereo not shown)", "melting point": "194.6 to 194.7 °C"}
{"molecule": "COc1cc(C2CC(c3ccccc3O)=NN2S(=O)(=O)c2ccc([N+](=O)[O-])cc2)cc(OC)c1O (stereo not shown)", "melting point": "195.5 to 197 °C"}
{"molecule": "COc1cc(C2CC(c3ccccc3O)=NN2S(=O)(=O)c2ccccc2)cc(OC)c1O (stereo not shown)", "melting point": "163.1 to 164.4 °C"}
{"molecule": "COc1cc(C2CC(c3ccc(C)cc3)=NN2c2ccccc2)cc(OC)c1OC (stereo not shown)", "melting point": "137.9 to 140.3 °C"}
{"molecule": "COc1cc(C2CC(c3ccccc3O)=NN2C(=O)c2cc([N+](=O)[O-])cc([N+](=O)[O-])c2)cc(OC)c1O (stereo not shown)", "melting point": "240.4 to 240.9 °C"}
{"molecule": "COc1cc(C2CC(c3ccc([N+](=O)[O-])cc3)=NN2)cc(Br)c1O (stereo not shown)", "melting point": "208.6 to 208.9 °C"}
{"molecule": "COc1cc(C2CC(c3ccc([N+](=O)[O-])cc3)=NN2)cc(OC)c1O (stereo not shown)", "melting point": "140.7 to 141.1 °C"}
{"molecule": "COc1cc(C2CC(c3ccccc3O)=NN2C(=O)c2cccs2)cc(OC)c1O (stereo not shown)", "melting point": "196.1 to 197.2 °C"}
{"molecule": "COc1cc(C2CC(c3ccccc3O)=NN2C(=O)c2cccc([N+](=O)[O-])c2)cc(OC)c1O (stereo not shown)", "melting point": "207.7 to 209.3 °C"}
{"molecule": "COc1cc(C2CC(c3ccccc3O)=NN2)cc(Br)c1O (stereo not shown)", "melting point": "181.8 to 183.9 °C"}
{"molecule": "COc1cc(C2CC(c3ccccc3O)=NN2C(=O)c2ccc([N+](=O)[O-])cc2)cc(OC)c1O (stereo not shown)", "melting point": "250.1 to 251.2 °C"}
